# Tgt: EGFR del19/T790M/C797S (Homo sapiens, UniProt P00533, C797S/DEL746-750/T790M)
# Sequence (P00533 with tags, fused parts or gaps DEL746-750/T790M/C797S): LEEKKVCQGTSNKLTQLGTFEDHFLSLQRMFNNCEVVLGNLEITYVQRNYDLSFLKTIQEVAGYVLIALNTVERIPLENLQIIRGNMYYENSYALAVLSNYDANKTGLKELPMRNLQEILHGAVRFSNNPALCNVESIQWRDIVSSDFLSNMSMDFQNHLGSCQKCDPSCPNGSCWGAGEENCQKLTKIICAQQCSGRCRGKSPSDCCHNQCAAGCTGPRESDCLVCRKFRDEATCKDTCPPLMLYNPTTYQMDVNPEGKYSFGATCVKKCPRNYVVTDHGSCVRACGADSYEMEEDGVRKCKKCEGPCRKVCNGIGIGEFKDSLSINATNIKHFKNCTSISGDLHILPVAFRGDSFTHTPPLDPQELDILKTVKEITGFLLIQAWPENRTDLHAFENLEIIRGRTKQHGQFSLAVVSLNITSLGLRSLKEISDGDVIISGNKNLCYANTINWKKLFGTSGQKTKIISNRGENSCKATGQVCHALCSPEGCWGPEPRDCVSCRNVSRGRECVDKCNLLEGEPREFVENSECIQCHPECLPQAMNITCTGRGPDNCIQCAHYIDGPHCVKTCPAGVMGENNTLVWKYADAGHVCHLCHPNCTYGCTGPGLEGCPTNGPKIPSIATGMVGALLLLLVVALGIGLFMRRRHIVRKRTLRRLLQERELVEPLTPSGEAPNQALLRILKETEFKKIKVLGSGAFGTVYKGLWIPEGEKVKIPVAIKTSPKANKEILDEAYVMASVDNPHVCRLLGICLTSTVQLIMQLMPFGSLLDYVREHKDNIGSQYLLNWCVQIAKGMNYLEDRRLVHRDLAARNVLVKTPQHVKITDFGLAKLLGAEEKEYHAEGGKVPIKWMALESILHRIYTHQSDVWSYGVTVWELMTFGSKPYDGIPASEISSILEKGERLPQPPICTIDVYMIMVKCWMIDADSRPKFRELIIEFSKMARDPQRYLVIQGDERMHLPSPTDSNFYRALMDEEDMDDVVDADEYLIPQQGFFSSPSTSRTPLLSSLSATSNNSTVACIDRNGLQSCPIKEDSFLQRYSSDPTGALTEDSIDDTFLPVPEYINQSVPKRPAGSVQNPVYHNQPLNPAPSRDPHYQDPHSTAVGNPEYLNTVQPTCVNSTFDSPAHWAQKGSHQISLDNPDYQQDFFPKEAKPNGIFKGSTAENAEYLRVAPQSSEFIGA
# Test Details: Biochemical EGFR kinase assay (Lance Ultra TR-FRET), triple mutant del19/T790M/C797S
# Cond: IC50 del19/T790M/C797S (nM) 100 μM ATP, 100 μM ATP
Quantity: IC50 (nM)

A. O=S(=O)(C1CC1)n1cc(-c2nccc(Nc3cc(N[C@H]4CC[C@](O)(CO)CC4)c(-c4ccccn4)cn3)n2)cn1
B. O=S(=O)(C1CC1)n1cc(-c2nccc(Nc3cc(N[C@H]4CC[C@H](CCO)CC4)c(-c4ccc(C(F)F)cn4)cn3)n2)cn1
C. C[C@]1(O)CC[C@@H](Nc2cc(Nc3ccnc(-c4cnn(S(=O)(=O)C5CC5)c4)n3)ncc2-c2cnc(N3CCC(F)(F)CC3)cn2)CC1
Please put the entries in order of rising IC50. # the answer lists labels in the order requested
A, B, C
(A: 0.2 nM, B: 5.6 nM, C: 15.2 nM)
